# System: SN12C renal
# Experiment Notes: NCI-60 one-dose screen, 48 h (100 = growth as untreated, 0 = no growth, -100 = all killed)
# Measurement Parameters: 10 µM unless noted
This is part of a sample that, as a whole, favours compounds with a hit. Of some 83,000 tested, about 20% had one in any assay.
Assignment: determine reported growth for the given compounds.
Answers are plain numbers, in %.

Sample answers from the record:
compound=COC(=O)CCCNc1c(-c2c(O)c(O)cc3c(O)c(-c4c(C)cc5c(-c6nc7ccccn7c6NCCCC(=O)OC)c(O)c(O)cc5c4O)c(C)cc23)nc2ccccn12 reported=21.7
compound=Cc1cc(Nc2ncc(Cl)c(Nc3ccccc3S(=O)(=O)C(C)C)n2)c(OC(C)C)cc1C1CCNCC1 reported=-87.2

// input: 3 compounds below; output: growth for each
1. CCn1c(-c2nonc2N)nc2c(C#CC(C)(C)O)ncc(OC[C@H]3CCCNC3)c21
2. c1cc(OCCN2CCCCC2)cc(-c2n[nH]c3ccc(-c4ncn[nH]4)cc23)c1
3. O=C(Cc1ccc(/C=C/C(=O)c2ncc[nH]2)cc1)Nc1ccc(Br)cc1

Reply |
1: 55.7; 2: 68.2; 3: 9.91

// input: 2 compounds below; output: growth for each
1. C/C(=C(/c1ccc(Cl)cc1)c1ccc(OCCN2CCCCCC2)cc1)c1ccccc1
2. CN1CCN(CCCOc2cccc3nc(Nc4ccc(Cl)c(C(F)(F)F)c4)ccc23)CC1

Reply |
[87.6, 28.3]

// input: 2 compounds below; output: growth for each
1. NC(=O)c1n[nH]n2c1nc(=O)c1c3c(sc12)CCCC3
2. CN1CCC(CNc2ccc3ncc(-c4cccc(OC(F)(F)F)c4)n3n2)CC1

Reply |
101
-81.2

// input: 4 compounds below; output: growth for each
1. N[C@@H]1CCCN(c2c(/C=C3\SC(=O)NC3=O)cccc2-c2ccccc2)C1
2. Cn1ccnc1C(=O)/C=C/c1ccc(CC(=O)Nc2ccc(Br)cc2)cc1
3. C=CC(=O)N1CCC[C@H](n2c(=O)n(-c3ccc(Oc4ccccc4)cc3)c3c(N)ncnc32)C1
4. COc1ccc(F)c(F)c1C(=O)c1cnc(NC2CCN(S(C)(=O)=O)CC2)nc1N

Reply |
1. 65
2. 1.07
3. 71
4. 14.5

###

# Test system: SK-MEL-5 melanoma
# Experiment Notes: NCI-60 one-dose screen, 48 h (100 = growth as untreated, 0 = no growth, -100 = all killed)
# Measurement Parameters: 10 µM unless noted
About 83,000 compounds went through this panel and 20% of them were active in at least one assay; those are over-represented in the sample as a whole.
Test Readout: growth (%)
One number for each entry, in %.

compound=C=C1[C@@H](O)C[C@H]2C(C)(C)C[C@H](Cl)C[C@]2(C)[C@H]1C[C@H](O)[C@H]1CC(=O)NC1=O test_readout=growth unit_string=% reported=-70.1
compound=CCN1CCN(CCCN(C[C@H]2Cc3ccccc3CN2)[C@H]2CCCc3cccnc32)CC1 test_readout=growth unit_string=% reported=97.7

// input: 6 compounds below; output: growth for each
1. C=CC(=O)N1CCC[C@@H](n2nc(-c3ccc(Oc4ccccc4)cc3)c3c(N)ncnc32)C1
2. C/C(=C(/c1ccc(Cl)cc1)c1ccc(OCCN2CCCCC2)cc1)c1ccccc1
3. Cc1nc(Nc2n[nH]c3c2CN(C(=O)N[C@H](CN(C)C)c2ccccc2)C3(C)C)c2sccc2n1
4. COC(=O)[C@H](C)NC(=O)[C@@H](OC)[C@@H]1Cc2cc3cc(OC4CC(OC5CC(O)C(O)C(C)O5)C(O)C(C)O4)c(C)c(O)c3c(O)c2C(=O)[C@H]1OC1CC(OC2CC(OC3CC(C)(O)C(O)C(C)O3)C(O)C(C)O2)C(O)C(C)O1 (stereo partly drawn)
5. CCN(CCO)CCCOc1ccc2c(Nc3cc(CC(=O)Nc4cccc(F)c4)[nH]n3)ncnc2c1
6. COc1ccc(Br)cc1NC(=O)Nc1cccc2c1ccn2Cc1ccnc(N)c1

Reply |
56.1
62
-84.9
-67.4
63.3
23.5

Cited source for all entries: PubChem BioAssay (NCI)
